Numbers sourced from patent US20080032921A1.

Property: pIC50; scope: individual binders
- studyTarget: purified HLA-DR DRB1*0404 (human)
- assayNotes: competition with 125I-labelled reference peptide, purified HLA
Just the number, please; pIC50 means minus log10 of the concentration in mol/L.

ESAVLRGFLILGKED (modifications not checked) [Flu.PB2.690]; 6.96

Task: Using the record for AMVFSQEDCMIKAVR (modifications not checked) [Flu.PB2.404] , state its measured pIC50.
Result: 6.47

Task: Please give measured pIC50 of the following entry: LIQLIVSGRDEQSIA (modifications not checked) [Flu.PB2.384]
Result: 7.05

Task: Give pIC50 for RVVVSIDRFLRVRDQ (modifications not checked) [Flu.PB2.496]
Result: 6.40
